# System: Vero E6
# Method Summary: cell viability relative to DMSO; higher = less toxic
# Assay Context: 72 h; 10000 nM
Property Measured: cell viability
Answer format: value, then unit.

## Input // returns reported cell viability for input CC(C)(C)C(=O)OCOC(=O)[C@@H]1N2C(=O)[C@@H](/N=C/N3CCCCCC3)[C@H]2SC1(C)C
## Output 92.8%

## Input Recorded cell viability for CC(C)(C)c1ccc(-c2nc3ccccc3[nH]2)cc1 , please?
## Output 81.6%

## Input Please report the recorded cell viability for CCC(CC)n1ccc2c(C(=O)NCc3c(C)cc(C)[nH]c3=O)cc(C#N)cc21 .
## Output 104%

## Input Which cell viability is listed for CN1CCN(C(=O)C2C(C(=O)O)[C@H]3CC[C@@H]2O3)CC1 (stereo not given in full) ?
## Output 106%

## Input Item under review: N[C@@H](C(=O)N[C@@H]1C(=O)N2C(C(=O)O)=C(Cl)CS[C@H]12)c1ccccc1 . Reported cell viability?
## Output 94.7%

* * *

What cell viability was measured for each of the following?
# Test system: Vero E6
# Method Summary: cell viability relative to DMSO; higher = less toxic
# Assay Context: 72 h; 1 nM
Write down the numeric answer in % and omit the unit.

## Input Reported cell viability, molecule Nc1c(S(=O)(=O)O)cc(Nc2cccc3ccccc23)c2c1C(=O)c1ccccc1C2=O : ____
## Output 94.2

## Input Can you share its cell viability? I mean this molecule: Cc1cccc(C)c1NC(=O)C1CCCCN1C (centres undefined) [mepivacaine]
## Output 96.3

## Input Look up cell viability: N=C(N)NCCC[C@H](NC(=O)[C@@H]1CCCN1C(=O)[C@@H]1CSSC[C@H](N)C(=O)N[C@@H](Cc2ccc(O)cc2)C(=O)N[C@@H](Cc2ccccc2)C(=O)N[C@@H](CCC(N)=O)C(=O)N[C@@H](CC(N)=O)C(=O)N1)C(=O)NCC(N)=O
## Output 101

## Input May I ask what cell viability has been recorded for O[C@@H](CN1CCC(Cc2ccc(F)cc2)CC1)c1ccc(Cl)cc1 (racemic) ?
## Output 98.8

## Input Quick check: cell viability of Cn1cc(C2=C(c3cn(C4CCN(Cc5ccccn5)CC4)c4ccccc34)C(=O)NC2=O)c2ccccc21 ?
## Output 101

## Input Endpoint output: cell viability of Nc1nc2[nH]cnc2c(=S)[nH]1 . Value?
## Output 96.6

## Input Suppose we examine the molecule NC(=O)CC[C@H](NC(=O)Cc1ccccc1)C(=O)O ; what cell viability value has been reported?
## Output 104

## Input If you can, please state the reported cell viability value of CCC(C)n1ncn(-c2ccc(N3CCN(c4ccc(OCC5COC(Cn6cncn6)(c6ccc(Cl)cc6Cl)O5)cc4)CC3)cc2)c1=O (centres undefined) .
## Output 92.9

## Input Name the reported cell viability value associated with the molecule CC[C@@H](c1ccc(F)c(F)c1)n1c(C(=O)OC)c(-c2ccno2)[nH]c1=S
## Output 103

* * *

# Test system: U2OS
# Method Summary: cell viability relative to DMSO; higher = less toxic
# Assay Context: 72 h; 1 nM
Property Measured: cell viability (%)
Quick note: give the figure in %, leave out the unit.

## Input Record lookup: for U2OS, what cell viability belongs to NS(=O)(=O)c1cccc2c1c([N+](=O)[O-])cc1nc(O)c(O)nc12 ?
## Output 104

## Input Which measured cell viability belongs to NC(=O)CN1CC[C@@H](NC(=O)[C@@H]2CCCN2)C1=O , tested on U2OS?
## Output 100

## Input Notebook: pull reported cell viability for U2OS, entry C[n+]1cccc(C(=O)[O-])c1
## Output 104

## Input Observed cell viability on U2OS for CC(C)[C@@H](C)/C=C/[C@@H](C)[C@H]1CC[C@H]2C3=CC=C4C[C@@H](O)CC[C@]4(C)[C@H]3CC[C@]12C , please.
## Output 103

## Input Observed cell viability on U2OS for CN1CCN(C(=O)C2C(C(=O)O)[C@H]3CC[C@@H]2O3)CC1 (stereo not given in full) , please.
## Output 103
